Numbers sourced from PubChem BioAssay (EPA / NIEHS).

# tested.target: Voltage-gated inwardly rectifying potassium channel KCNH2 (Homo sapiens) (UniProt Q12809)
# Sequence (Q12809 whole entry, looked up): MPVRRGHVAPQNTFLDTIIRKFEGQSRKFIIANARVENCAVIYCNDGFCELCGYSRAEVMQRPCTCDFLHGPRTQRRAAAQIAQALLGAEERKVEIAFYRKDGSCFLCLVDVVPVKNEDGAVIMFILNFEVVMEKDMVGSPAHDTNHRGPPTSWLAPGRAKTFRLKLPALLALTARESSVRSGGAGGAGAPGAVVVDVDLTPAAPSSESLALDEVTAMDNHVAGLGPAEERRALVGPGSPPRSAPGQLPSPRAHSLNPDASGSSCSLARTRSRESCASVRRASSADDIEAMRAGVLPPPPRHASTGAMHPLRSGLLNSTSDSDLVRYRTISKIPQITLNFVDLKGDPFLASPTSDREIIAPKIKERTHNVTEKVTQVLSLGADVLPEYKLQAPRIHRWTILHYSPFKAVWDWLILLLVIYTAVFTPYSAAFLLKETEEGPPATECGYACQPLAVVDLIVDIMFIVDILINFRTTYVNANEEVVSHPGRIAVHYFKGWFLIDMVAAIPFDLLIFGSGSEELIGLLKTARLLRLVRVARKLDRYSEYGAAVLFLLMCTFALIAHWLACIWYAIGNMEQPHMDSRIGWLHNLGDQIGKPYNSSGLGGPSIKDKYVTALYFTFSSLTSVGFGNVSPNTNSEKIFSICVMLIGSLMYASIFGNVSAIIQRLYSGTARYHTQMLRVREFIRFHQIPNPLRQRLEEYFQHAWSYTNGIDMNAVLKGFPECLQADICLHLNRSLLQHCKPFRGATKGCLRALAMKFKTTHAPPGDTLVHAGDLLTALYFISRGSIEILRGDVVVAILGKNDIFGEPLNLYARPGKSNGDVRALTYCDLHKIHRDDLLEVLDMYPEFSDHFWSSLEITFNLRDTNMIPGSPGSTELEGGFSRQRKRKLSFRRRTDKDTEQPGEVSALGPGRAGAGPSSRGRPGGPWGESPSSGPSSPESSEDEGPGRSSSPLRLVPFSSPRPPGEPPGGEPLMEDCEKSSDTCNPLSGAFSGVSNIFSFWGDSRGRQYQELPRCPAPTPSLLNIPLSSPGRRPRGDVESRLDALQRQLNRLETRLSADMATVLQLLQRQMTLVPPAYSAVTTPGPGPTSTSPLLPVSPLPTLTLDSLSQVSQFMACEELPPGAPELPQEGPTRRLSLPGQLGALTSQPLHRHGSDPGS
# measurement.description: NVS_IC_hKhERGCh: NovaScreen (NVS) Ion Channel Assay for human Potassium Channel ERG (KhERGCh) (AID 2283333)
Records with an inconclusive call do not appear. Active and inactive are the calls of the source. The calls were made as follows: active = hit-call score of the fitted dose curve at least 0.9, where 1 is the maximum; inconclusive = response in the unintended direction; inactive = score below 0.9.
# output must be one of Yes = active, No = inactive

Solved cases below.
• CCCCSP(=O)(SCCCC)SCCCC = No
• CCCOCC(=Nc1ccc(Cl)cc1C(F)(F)F)n1ccnc1 = No
• FC(F)C(F)(F)OCC(Cn1cncn1)c1ccc(Cl)cc1Cl (centres undefined) = Yes

Q: I would be grateful if you could indicate the recorded call for O=[N+]([O-])c1cc(C(F)(F)F)c(Cl)c([N+](=O)[O-])c1Nc1ncc(C(F)(F)F)cc1Cl .
Ans: No

----------
# tested.target: Cellular tumor antigen p53 (Homo sapiens) (UniProt P04637)
# Sequence (P04637 whole entry, looked up): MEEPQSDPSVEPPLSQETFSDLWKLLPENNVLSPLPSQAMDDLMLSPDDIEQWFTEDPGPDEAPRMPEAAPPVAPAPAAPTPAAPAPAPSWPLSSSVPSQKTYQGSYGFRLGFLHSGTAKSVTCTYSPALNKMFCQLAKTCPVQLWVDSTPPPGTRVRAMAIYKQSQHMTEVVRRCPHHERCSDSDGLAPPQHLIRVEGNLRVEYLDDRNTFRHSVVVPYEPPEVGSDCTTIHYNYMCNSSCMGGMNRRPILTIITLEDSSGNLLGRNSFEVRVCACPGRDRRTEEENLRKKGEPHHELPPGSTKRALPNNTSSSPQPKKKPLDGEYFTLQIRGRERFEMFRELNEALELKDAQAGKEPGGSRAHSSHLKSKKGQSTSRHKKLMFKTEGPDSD
# measurement.description: TOX21_p53_BLA_p5_ratio: Tox21 HCT-116 p53 Agonism Beta-lactamase Assay, Ratio, Phase 5 (AID 2283599)
# Protocol: TOX21_p53_BLA_p5 is a cell-based, single-readout assay that uses HCT116, a human intestinal cell line, […] in a 1536-well plate.TOX21_p53_BLA_p5_ratio is an assay readout measuring reporter gene via receptor activity and designed using inducible reporter (beta lactamase induction) detected with GAL4 b-lactamase reporter gene. […] This assay endpoint, TOX21_p53_BLA_p5_ratio, was analyzed in the positive analysis fitting direction relative to DMSO as the negative control and baseline of activity. […]
Results filed as inconclusive are left out. Active and inactive are the calls of the source. Rule for the calls: active = hit-call score of the fitted dose curve at least 0.9, where 1 is the maximum; inconclusive = response in the unintended direction; inactive = score below 0.9.
# output must be one of active, inactive

* CCc1cccc(C)c1N(C(=O)CCl)C(C)COC (stereo not drawn) | inactive
* CCOP(=S)(OCC)Oc1ccc([N+](=O)[O-])cc1 | inactive
* CN(C)NC(=O)CCC(=O)O | inactive
* CCOP(=S)(OCC)SCCSCC | inactive
* C#CC(C)(C)NC(=O)c1cc(Cl)cc(Cl)c1 | inactive

Q: I would be grateful if you could indicate the recorded call for CCCCOC(=O)c1ccccc1C(=O)O .
Ans: inactive

Q: I would be grateful if you could indicate the recorded call for CCC(=O)Nc1ccc(Cl)c(Cl)c1 .
Ans: inactive

Q: I would be grateful if you could indicate the recorded call for CSc1nnc(C(C)(C)C)c(=O)n1N .
Ans: inactive

----------
# Read-out: Caspase-3 (Homo sapiens) (UniProt P42574)
# Sequence (P42574 whole entry, looked up): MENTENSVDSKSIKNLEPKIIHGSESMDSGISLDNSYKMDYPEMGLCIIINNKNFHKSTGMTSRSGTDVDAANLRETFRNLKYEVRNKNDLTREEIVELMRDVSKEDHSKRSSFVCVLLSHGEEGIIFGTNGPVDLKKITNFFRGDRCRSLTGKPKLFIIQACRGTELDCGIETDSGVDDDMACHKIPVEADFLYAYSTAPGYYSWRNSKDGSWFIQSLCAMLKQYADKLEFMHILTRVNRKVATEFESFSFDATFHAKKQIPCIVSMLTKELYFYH
# measurement.description: LTEA_HepaRG_CASP3: Life Technologies and Expression Analysis (LTEA) Assay for cysteine-aspartic acid protease (CASP3) using HepaRG (AID 2283477)
# condition.context: mRNA level, 48 h; actives raise or lower the signal
Calls of active or inactive are those of the source. The calls were made as follows: active = hit-call score of the fitted dose curve at least 0.9, where 1 is the maximum; inactive = score below 0.9.
property.label: outcome

These recorded examples may help you get a feel for the data.
• CC[C@H](C)[C@H]1O[C@]2(C=C[C@@H]1C)C[C@@H]1C[C@@H](C/C=C(\C)[C@@H](O[C@H]3C[C@H](OC)[C@@H](O[C@H]4C[C@H](OC)[C@@H](NC)[C@H](C)O4)[C@H](C)O3)[C@@H](C)/C=C/C=C3\CO[C@@H]4[C@H](O)C(C)=C[C@@H](C(=O)O1)[C@]34O)O2 = inactive
• CC(C)=CC1C(C(=O)OCN2C(=O)C3=C(CCCC3)C2=O)C1(C)C (centres undefined) = inactive
• O=c1ccc(=O)[nH][nH]1 = inactive
• CCCSP(=O)(OCC)Oc1ccc(Br)cc1Cl (centres undefined) = inactive
• CNc1cnn(-c2cccc(C(F)(F)F)c2)c(=O)c1Cl = inactive
• CCC(=NOC/C=C/Cl)C1=C(O)CC(C2CCOCC2)CC1=O (centres undefined) = inactive
• CC(C)[C@H](C(=O)O[C@H](C#N)c1cccc(Oc2ccccc2)c1)c1ccc(Cl)cc1 = inactive
• CCOP(=O)(SC(C)CC)N1CCSC1=O (centres undefined) = inactive

Lab note: next molecule to report on.
So, CON=C(C(=O)OC)c1ccccc1CON=C(C)c1cccc(C(F)(F)F)c1 ? Its outcome was inactive

----------
# Read-out: Interleukin-1 alpha (IL1a), IL1A (gene 3552)
# measurement.description: BSK_LPS_IL1a: BioMAP Diversity Plus: LPS Assay for Interleukin-1 alpha (IL1a) Biomarker Activity (AID 2283080)
# condition.context: primary human HUVEC with PBMC; actives raise or lower the signal
# Experimental: BSK_LPS is a cell-based, multiplexed-readout assay that uses umbilical vein endothelium and peripheral blood mononuclear cells, a human vascular primary cell co-culture, with measurements taken at 24 hours after chemical dosing in a 96-well plate.BSK_LPS_IL1a is an assay component measured in the BSK_LPS assay. It measures IL-a antibody related to regulation of gene expression using ELISA technology.Data from the assay component BSK_LPS_IL1a was analyzed into 1 assay endpoint. […]
Activity calls are given as the source filed them. The calls were made as follows: active = hit-call score of the fitted dose curve at least 0.9, where 1 is the maximum; inactive = score below 0.9.
# output must be one of yes (1) for active, no (0) for inactive

* CCOP(=S)(OCC)OC(Cl)C(Cl)(Cl)Cl (stereo not drawn) | no (0)
* Cc1ccn2nc(S(=O)(=O)Nc3c(F)cccc3F)nc2n1 | no (0)
* CC(COc1ccc(Oc2ccccc2)cc1)Oc1ccccn1 (stereo not drawn) | no (0)

Q: I would be grateful if you could indicate the recorded call for O=c1ccc(=O)[nH][nH]1 .
Ans: no (0)

Q: I would be grateful if you could indicate the recorded call for CCCSP(=O)(OCC)Oc1ccc(Br)cc1Cl (stereo not drawn) .
Ans: no (0)

Q: I would be grateful if you could indicate the recorded call for CON=C(C(=O)OC)c1ccccc1CON=C(C)c1cccc(C(F)(F)F)c1 .
Ans: no (0)

Q: I would be grateful if you could indicate the recorded call for CCOP(=S)(OCC)Oc1cc(C)nc(C(C)C)n1 .
Ans: no (0)

Q: I would be grateful if you could indicate the recorded call for CCCCN(CC)c1c([N+](=O)[O-])cc(C(F)(F)F)cc1[N+](=O)[O-] .
Ans: no (0)

Q: I would be grateful if you could indicate the recorded call for C#CC(C)(C)NC(=O)c1cc(Cl)cc(Cl)c1 .
Ans: no (0)

----------
# tested.target: Cytochrome P450 2C19 (Homo sapiens) (UniProt P33261)
# measurement.description: NVS_ADME_hCYP2C19: NovaScreen (NVS) CYP450-related Enzyme Activity (ADME) Assay for human CYP2C19 (AID 2283113);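 as to AC50: potency for inhibition seen as loss of fluorescent signal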
Records with an inconclusive call do not appear. Active and inactive are the calls of the source. The calls were made as follows: active = hit-call score of the fitted dose curve at least 0.9, where 1 is the maximum; inconclusive = response in the unintended direction; inactive = score below 0.9.
property.label: AC50

These recorded examples may help you get a feel for the data.
* CC(C)[C@H](C(=O)O[C@H](C#N)c1cccc(Oc2ccccc2)c1)c1ccc(Cl)cc1 | 8.22 µM (active)
* COc1ccc(C(=CC(=O)N2CCOCC2)c2ccc(Cl)cc2)cc1OC | 7.59 µM (active)
* CON=C(C(=O)OC)c1ccccc1CON=C(C)c1cccc(C(F)(F)F)c1 | 2.26 µM (active)
* CC1(C(=O)Nc2ccc(O)c(Cl)c2Cl)CCCCC1 | 6.6 µM (active)
* CCC(CC)Nc1c([N+](=O)[O-])cc(C)c(C)c1[N+](=O)[O-] | 10 µM (active)

Would you mind giving AC50 for every compound in the list below?
1. Nc1c(Cl)cc([N+](=O)[O-])cc1Cl
2. CSc1nc(NC(C)C)nc(NC(C)C)n1
3. Cc1cc(C2CC2)nc(Nc2ccccc2)n1
4. CSc1nnc(C(C)(C)C)c(=O)n1N
5. CCCCOC(=O)c1ccccc1C(=O)O
6. CCOP(=S)(OCC)Oc1ccc2c(C)c(Cl)c(=O)oc2c1
7. CCOC(=O)CC(SP(=O)(OC)OC)C(=O)OCC (configuration not stated)

Ans:
inactive
13.4 µM (active)
inactive
inactive
inactive
0.428 µM (active)
9.39 µM (active)

----------
# measurement.description: IUF_NPC1b_proliferation_BrdU_72hr: Leibniz Research Institute for Environmental Medicine (IUF) 72-hour Neural Progenitor Cell Bromodeoxyuridine (BrdU) Proliferation Assay (NPC1b) (AID 2284207)
Active and inactive are the calls of the source. The calls were made as follows: active = hit-call score of the fitted dose curve at least 0.9, where 1 is the maximum; inactive = score below 0.9.
# output must be one of active, inactive

Solved cases below.
* CC(=NC#N)N(C)Cc1ccc(Cl)nc1 | active
* S=C1NCCN1 | inactive
* CC1=NNC(=O)N(/N=C/c2cccnc2)C1 | inactive
* CCOP(=S)(OCC)SCCSCC | inactive
* COP(=O)(OC)OC(Br)C(Cl)(Cl)Br (stereo unspecified) | active

Consider the record given below.
Q: I would be grateful if you could indicate the recorded call for CN(C)[C@@H]1C(=O)C(C(N)=O)=C(O)[C@@]2(O)C(=O)C3=C(O)c4c(O)cccc4[C@@](C)(O)[C@H]3[C@H](O)[C@@H]12 .
Ans: active

----------
# Test system: rat CYP2B1, gene 24300
# measurement.description: NVS_ADME_rCYP2B1: NovaScreen (NVS) CYP450-related Enzyme Activity (ADME) Assay for rat CYP2B1 (AID 2283117)
Calls of active or inactive are those of the source. The calls were made as follows: active = hit-call score of the fitted dose curve at least 0.9, where 1 is the maximum; inconclusive = response in the unintended direction; inactive = score below 0.9.
property.label: AC50

These recorded examples may help you get a feel for the data.
• CCOC(=O)CC(SP(=O)(OC)OC)C(=O)OCC (configuration not stated) = inactive
• CCOP(=S)(OCC)Oc1ccc2c(C)c(Cl)c(=O)oc2c1 = 914 nM (active)
• CCOP(=S)(OCC)Oc1ccc([N+](=O)[O-])cc1 = 559 nM (active)
• C[Si](Cn1cncn1)(c1ccc(F)cc1)c1ccc(F)cc1 = 37.1 nM (active)
• C=C(C)[C@H]1Cc2c(ccc3c2O[C@@H]2COc4cc(OC)c(OC)cc4[C@@H]2C3=O)O1 = inactive

Would you mind giving AC50 for every compound in the list below?
1. CCCCOC(=O)c1ccccc1C(=O)O
2. CC(C)N(C(=O)SCC(Cl)=C(Cl)Cl)C(C)C

Ans:
1. inactive
2. inactive
